Biological target: Solute carrier family 2, facilitated glucose transporter member 1 (Homo sapiens) (UniProt P11166)
Sequence (P11166 whole entry): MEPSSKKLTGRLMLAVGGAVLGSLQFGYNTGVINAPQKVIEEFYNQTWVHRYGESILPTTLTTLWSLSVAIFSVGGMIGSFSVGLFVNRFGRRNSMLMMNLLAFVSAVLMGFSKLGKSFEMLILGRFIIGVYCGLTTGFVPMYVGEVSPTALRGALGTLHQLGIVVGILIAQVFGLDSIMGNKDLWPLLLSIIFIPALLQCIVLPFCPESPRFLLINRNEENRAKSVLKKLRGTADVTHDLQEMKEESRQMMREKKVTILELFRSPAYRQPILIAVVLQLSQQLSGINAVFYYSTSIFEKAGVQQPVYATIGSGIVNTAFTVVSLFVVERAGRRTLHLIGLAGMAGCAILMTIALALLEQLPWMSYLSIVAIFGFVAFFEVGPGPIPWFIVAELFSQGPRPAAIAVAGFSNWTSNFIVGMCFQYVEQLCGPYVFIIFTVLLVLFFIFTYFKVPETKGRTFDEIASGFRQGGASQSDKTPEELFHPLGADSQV
Experiment: ST_JUDE_LEISH: Cytotoxicity at 2uM final concentration against transgenic Leishmania Mexicana promastigotes LmGLUT1 that are glucose transport deficient and complemented with the human glucose transporter GLUT1. Activity is measured by DNA content using SYBR green in vitro
Format: functional
# inhibition per entry
Hi! Could you send only the number? It should be in %, unit omitted.

Query: Using the record for O=C(Nc1cccc(CN2CCCN(Cc3cccc(O)c3)CC2)c1)c1ccc2ccccc2c1 , report its inhibition.
Result: 1.01

Query: Using the record for CC(C)(Oc1ccc(Cl)cc1)C(=O)NCCC1CCN(CCCCCNC(=O)/C=C/c2ccc(Cl)c(Cl)c2)CC1 , report its inhibition.
Result: 6.53

Query: Using the record for O=C(Nc1ccc(OCc2ccccc2)cc1)c1nc2ccccc2nc1Cl , report its inhibition.
Result: 1.33

Query: Using the record for Cc1cccc2nc(-c3cccc(-c4cccc(NC(=O)Cc5ccc[n+]([O-])c5)c4)c3)[nH]c12 , report its inhibition.
Result: 1.71

Query: Using the record for N#Cc1cccc(COC(=O)C2=C(COc3ccccc3Cl)NC(=O)NC2c2c[nH]c3cnccc23)c1 (centres undefined) , report its inhibition.
Result: 9.04

Query: Using the record for Cc1ccc(NC(=O)c2cn(-c3ccccc3)nc2-c2ccc(F)cc2)cc1[N+](=O)[O-] , report its inhibition.
Result: 4.38

Query: Using the record for Cc1ccc(-n2cc(CNCC3CCN(CCO)CC3)c(-c3ccc(F)cc3)n2)cc1 , report its inhibition.
Result: 85

Query: Using the record for Cc1cc(C)cc(OCC(O)CN(Cc2cc(Cl)cc(Cl)c2)C(=O)Nc2ccccc2Cl)c1 (centres undefined) , report its inhibition.
Result: 2.01

Query: Using the record for COc1ccc(CNC2CCN(C)CC2)cc1-c1ccc(S(=O)(=O)NCC2CCCO2)s1 (centres undefined) , report its inhibition.
Result: 3.99

----------
# inhibition per entry
Target: Hexose transporter 1 (Plasmodium falciparum) (UniProt O97467)
Experiment: ST_JUDE_LEISH: Cytotoxicity at 2uM final concentration against transgenic Leishmania Mexicana promastigotes LmPfHT that are glucose transport deficient and complemented with the Plasmodium falciparum hexose transporter. Activity is measured by DNA content using SYBR green in vitro
Type: functional

Below, 2 compounds whose answers are already recorded.
- compound: "Cc1[nH]c(C)c(-c2ccc(-c3ccccc3Cl)nc2)c(=O)c1Cl"
  test.result: "3.94%"
- compound: "Oc1cc(Nc2ccnc3cc(-c4ccc(CN5CCCCC5)o4)c(Cl)cc23)c(Cl)cc1F"
  test.result: "1.8%"

Query: Using the record for Clc1ccc(CNCC2CCN(CC3CCCCC3)CC2)cc1Cl , report its inhibition.
Result: 0.7%

Query: Using the record for CN1CCN(c2ccnc3ccc(NC(=O)Nc4c(Cl)cccc4Cl)cc23)CC1 , report its inhibition.
Result: -2.3%

Query: Using the record for CN1C(=O)C(=O)N(CCCCCONC(=N)N)C1=S , report its inhibition.
Result: 6.2%

Query: Using the record for CC(C)(C)c1ccc(CN2CCC(NC(=O)c3cc(-c4cccc(C(F)(F)F)c4)cs3)C2)cc1 (stereo not given) , report its inhibition.
Result: 0.62%

Query: Using the record for CCn1ncc2c(N3CCCC3=O)cc(C(=O)N[C@@H](Cc3ccccc3)[C@H](O)CNC(C)(C)c3cccc(OC)c3)cc21 , report its inhibition.
Result: -0.95%

Query: Using the record for CN(Cc1cccc(F)c1)C1CCCN(c2cc(NC(=O)c3ccccc3)ccn2)C1 (stereo not given) , report its inhibition.
Result: 4.07%

Query: Using the record for CCN(Cc1ccccc1)C1CCN(Cc2cc(Br)ccc2O)CC1 , report its inhibition.
Result: 2.05%

Query: Using the record for CN1CCN(c2nc(NCCc3ccc(O)cc3)nc(NCc3ccccc3-c3ccc(C(F)(F)F)cc3)n2)CC1 , report its inhibition.
Result: 2.22%

Data origin, for the record: ChEMBL document CHEMBL3433997
